Data provenance is the supplement of paper PMC6555819.

Test system: THRa:RXRa (NR concentration 90 nM, RXRa partner concentration 90 nM)
Experiment: PBM binding z-score (relative to random genomic background probes); higher = stronger binding; sequences stand for … in GC…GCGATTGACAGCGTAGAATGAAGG
Reported property: PBM binding z-score

Below are worked cases with known answers.
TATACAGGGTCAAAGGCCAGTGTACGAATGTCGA : 3.57
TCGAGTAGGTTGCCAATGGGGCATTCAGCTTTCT : -0.51
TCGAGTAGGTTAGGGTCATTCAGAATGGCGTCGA : 3.83
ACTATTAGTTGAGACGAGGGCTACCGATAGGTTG : 0.224
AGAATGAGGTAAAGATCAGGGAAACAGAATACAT : 1.79
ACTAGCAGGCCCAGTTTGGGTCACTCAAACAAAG : 1.72
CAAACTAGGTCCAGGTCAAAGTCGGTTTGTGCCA : 3.31
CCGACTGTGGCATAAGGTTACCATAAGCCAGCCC : 2.37

Recorded PBM binding z-score (sequence "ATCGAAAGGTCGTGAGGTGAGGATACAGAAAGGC" ): 3.74

Short answer for "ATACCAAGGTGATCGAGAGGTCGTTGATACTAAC" : PBM binding z-score was 2.59

Item: "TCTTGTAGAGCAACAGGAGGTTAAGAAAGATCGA" | PBM binding z-score: 0.705
